tested on: HSkMC (human skeletal muscle cells); assay: cytotoxicity call (relative viability < 0.9); settings: 10 µM
Screen size: about 39,000 compounds; about 1,500 (3.8%) were called active. This is one part of a sample in which actives are shown more often than they occur.
Hi there, use one of these labels in your reply, thanks! Yes = active, No = inactive

Look over these answered cases.
>>> category_label("O=C(C[C@H]1CC[C@@H]2[C@H](COC[C@@H](O)CN2S(=O)(=O)c2cccc(Cl)c2)O1)N1CCOCC1")
"No"
>>> category_label("C[C@@H]1CN([C@@H](C)CO)C(=O)Cc2cc(NC(=O)Nc3ccccc3)ccc2O[C@@H]1CN(C)Cc1ccc(Oc2ccccc2)cc1")
"Yes"
>>> category_label("C[N+](C)(C)CCCCNC(=O)[C@H]1C[C@H]2C(=O)N3CCC[C@H]3C(=O)N2[C@H]1c1cccc(OCCO)c1")
"No"

Query string: Call for entry `COc1ccc(NC(=O)N(C)C[C@H]2Oc3ncc(C#CCN(C)C)cc3C(=O)N([C@@H](C)CO)C[C@@H]2C)cc1` :
Result string: No

Query string: How about `COc1cc(/C=C/C(=O)NCCCNC(=O)/C=C/c2cc(OC)c(OC)c(OC)c2)cc(OC)c1OC` ?
Result string: No

Query string: Same read-out for `CN1C2=CC(=O)/C(=N\NC(N)=O)C=C2C[C@H]1S(=O)(=O)O` ?
Result string: No

Query string: What about `C[C@@H]1CN([C@@H](C)CO)C(=O)c2cc(NS(C)(=O)=O)ccc2O[C@@H]1CN(C)C(=O)Nc1ccc(C(F)(F)F)cc1` ?
Result string: No

Query string: Next molecule up: `C[C@@H]1CCCCO[C@@H](CN(C)CC2CCCCC2)[C@@H](C)CN([C@H](C)CO)C(=O)c2cc(NC(=O)Nc3ccccc3)ccc2O1`
Result string: No

Query string: Please do the same for `O=C(C[C@H]1C=C[C@@H](NC(=O)Nc2cc(F)ccc2F)[C@@H](CO)O1)NCCCN1CCOCC1` as well.
Result string: No

Query string: Follow-up entry: `COc1ccc(NC(=O)Nc2ccc3c(c2)CC(=O)N([C@H](C)CO)C[C@H](C)[C@@H](CN(C)Cc2ccc(-c4ccccc4)cc2)O3)cc1`
Result string: Yes

Query string: And for `C[C@H]1CN([C@@H](C)CO)C(=O)Cc2cc(NC(=O)Nc3ccccc3)ccc2O[C@H]1CN(C)Cc1ccc(Oc2ccccc2)cc1` ?
Result string: Yes
